melting point for assorted compounds
Your answer is read as °C, so omit the unit and give the number.

Below, 5 compounds whose answers are already recorded.
compound: CN1CCC(OC2c3cccc(OCc4ccccc4)c3CCn3cc(-c4ccccc4)nc32)CC1 (stereo not shown)
value-type: melting point
result-units: °C
assay-value: 68
//
compound: COc1cccc2c1CCn1cc(-c3ccccc3)nc1C2OC1CCN(C)CC1 (stereo not shown)
value-type: melting point
result-units: °C
assay-value: 73
//
compound: Cc1c(I)nc2n1CCc1ccccc1C2OC1CCN(C)CC1 (stereo not shown)
value-type: melting point
result-units: °C
assay-value: 59
//
compound: Cc1ccccc1-c1cccc2c1CCn1cc(-c3ccccc3)nc1C2OC1CCN(C)CC1 (stereo not shown)
value-type: melting point
result-units: °C
assay-value: 94
//
compound: CCCc1c(-c2ccccc2)nc2n1CCc1ccccc1C2OC1CCN(C)CC1 (stereo not shown)
value-type: melting point
result-units: °C
assay-value: 144

QUERY: Look up melting point: CN1CCC(OC2c3cccc(CCc4ccccc4)c3CCn3cc(-c4ccccc4)nc32)CC1 (stereo not shown)
RESULT: 67

QUERY: Look up melting point: CC(C)c1c(-c2ccccc2)nc2n1CCc1ccccc1C2OC1CCN(C)CC1.O=C(O)C(=O)O.O=C(O)C(=O)O (stereo not shown)
RESULT: 90

QUERY: Look up melting point: CN1CCC(OC2c3ccccc3CCn3cc(-c4ccc(Br)cc4)nc32)CC1 (stereo not shown)
RESULT: 142

QUERY: Look up melting point: CN1CCC(OC2c3cccc(-c4ccc(F)cc4)c3CCn3cc(-c4ccccc4)nc32)CC1 (stereo not shown)
RESULT: 95

QUERY: Look up melting point: Cc1cccc(-c2nc3n(c2C)CCc2ccccc2C3OC2CCN(C)CC2)c1 (stereo not shown)
RESULT: 66

###

- system-tested: human H4 receptor (Homo sapiens, UniProt Q9H3N8)
- Sequence (Q9H3N8 whole entry): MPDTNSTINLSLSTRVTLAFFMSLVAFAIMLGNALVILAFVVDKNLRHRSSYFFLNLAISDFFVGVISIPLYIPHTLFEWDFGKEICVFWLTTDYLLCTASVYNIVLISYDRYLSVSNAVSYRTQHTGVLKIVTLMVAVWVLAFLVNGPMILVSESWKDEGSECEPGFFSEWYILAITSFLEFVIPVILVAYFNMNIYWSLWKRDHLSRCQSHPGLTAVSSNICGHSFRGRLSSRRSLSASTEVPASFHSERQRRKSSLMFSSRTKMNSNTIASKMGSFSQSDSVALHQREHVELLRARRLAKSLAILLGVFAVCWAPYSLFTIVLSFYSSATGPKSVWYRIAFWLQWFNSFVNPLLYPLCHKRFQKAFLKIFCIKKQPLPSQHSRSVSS
- assay-text: biochemical
Counter-ions that a name gives are not always drawn.
IC50 for assorted compounds

Below, 3 compounds whose answers are already recorded.
compound: Cc1ccc(-c2cn3c(n2)C(OC2CCN(C)CC2)c2ccccc2CC3)c(F)c1 (stereo not drawn) [Example 82]
IC50: < 0.03 µM
--
compound: Cc1cccc(-c2nc3n(c2C)CCc2ccccc2C3OC2CCN(C)CC2)c1 (stereo not drawn) [Example 144]
IC50: < 0.03 µM
--
compound: CCCCc1ccc(-c2cn3c(n2)C(OC2CCN(C)CC2)c2ccccc2CC3)cc1 (stereo not drawn) [Example 41, oxalate]
IC50: < 0.3 µM

Now let's try a different one.
QUERY: Look up IC50: CCCCCc1ccc(-c2cn3c(n2)C(OC2CCN(C)CC2)c2ccccc2CC3)cc1 (stereo not drawn) [Example 42]
RESULT: < 0.03 µM

###

- system-tested: human H4 receptor (Homo sapiens)
- assay-text: biochemical
pKi: −log10 of the molar value.
value-type: pKi

QUERY: Look up pKi: Cc1c(-c2ccc(N3CCOC3=O)cc2)nc2n1CCc1ccccc1C2OC1CCN(C)CC1 (stereo not drawn) [Example 131]
RESULT: > 6.52

QUERY: Look up pKi: CN1CCC(OC2c3cccc(F)c3CCn3cc(-c4ccccc4)nc32)CC1 (stereo not drawn) [Example 107]
RESULT: > 6.00

QUERY: Look up pKi: CN1CCC(OC2c3cccc(OCc4ccccc4)c3CCn3cc(-c4ccccc4)nc32)CC1 (stereo not drawn) [Example 248]
RESULT: > 6.00

QUERY: Look up pKi: CN1CCC(OC2c3ccccc3CCn3cc(-c4ccc(CN5CCCCC5=O)cc4)nc32)CC1 (stereo not drawn) [Example 185]
RESULT: > 6.52

QUERY: Look up pKi: C=C(C)Cc1nc2n(c1C(N)=O)CCc1ccccc1C2OC1CCN(C)CC1 (stereo not drawn) [Example 266]
RESULT: > 6.52

Entry source: patent US9255101B2
